# procedure_text: gradient 5% acetonitrile 3 min, to 50% in 2 min, to 85% in 15 min, held 3 min, 100 µL/min
# run_parameters: column: Zorbax Extend-C18 2.1 x 50 mm; eluents: water / acetonitrile, 0.1% formic acid
metric_name: RP-LC retention time (s)

| compound | unit_spec | RP-LC retention time |
| --- | --- | --- |
| CCCn1nnc2cc(S(=O)(=O)N3CCCC(C(=O)N4CCCCCC4)C3)ccc21 (configuration not stated) | s | 890 |
| CC(=O)NC[C@H]1CN(c2ccc(-c3ccc(CNCc4cn[nH]n4)cc3)c(F)c2)C(=O)O1 | s | 647 |
| Cc1cc(C2CCCN2C(=O)Cc2ccc(F)cc2Cl)no1 (configuration not stated) | s | 851 |
| COc1ccc2[nH]c(C(=O)NC3CC3)cc2c1 | s | 703 |
| CC(C)NC(=O)c1cc(=O)[nH]c2c(Cl)cccc12 | s | 737 |
| O=C(Nc1ccc(F)cc1Br)c1cnc(-c2ccccc2)nc1-c1ccncc1 | s | 935 |
| Cc1ccccc1Nc1c(-c2ccc(N3CCOCC3)cc2)nc2cnccn12 | s | 822 |

---

# procedure_text: gradient 5% acetonitrile 3 min, to 50% in 2 min, to 85% in 15 min, held 3 min, 100 µL/min
# run_parameters: column: Zorbax Extend-C18 2.1 x 50 mm; eluents: water / acetonitrile, 0.1% formic acid
metric_name: RP-LC retention time (s)

| compound | unit_spec | number |
| --- | --- | --- |
| CSc1cccc(NC(=O)NC2CCN(c3ccc(F)cc3)C2=O)c1 (stereo not given) | s | 824 |
| Cc1ccccc1CN1CCCN(c2ncccc2-c2nc(C3CC3)no2)CC1 | s | 711 |
| CCN(CC)C(=O)Cn1c(=O)c2cnc(-c3ccccc3)nc2n(C)c1=O | s | 854 |
| CC1CN(C(=O)Cn2cc(SCC(=O)N3CCCCCC3)c3ccccc32)CC(C)O1 (stereo not given) | s | 889 |
| CN(C)c1ccc(NC(=O)Cn2nc3c(Oc4ccc(Cl)cc4)nccn3c2=O)cc1 | s | 674 |
| O=C(NC1CCCC1)C1CCCN(c2ccc3cc(S(=O)(=O)N4CCCC4)ccc3n2)C1 (stereo not given) | s | 716 |
| CCOc1ccc2ncc(S(=O)(=O)c3ccc(C)c(C)c3)c(N3CCN(C)CC3)c2c1 | s | 658 |
| COC(=O)c1ncn2c1C(=O)N(Cc1ccc(Cl)cc1)C(C)(C(=O)NCc1ccccc1)C2 (stereo not given) | s | 755 |
| CCn1cc(C(=O)NCCC(C)C)c2nn(-c3ccccc3)c(=O)c-2c1 | s | 878 |
| Cc1ccsc1C(=O)N1[C@H]2CC[C@@H]1c1cnc(-c3ccccc3)nc1C2 | s | 982 |

---

# procedure_text: gradient 5% acetonitrile 3 min, to 50% in 2 min, to 85% in 15 min, held 3 min, 100 µL/min
# run_parameters: column: Zorbax Extend-C18 2.1 x 50 mm; eluents: water / acetonitrile, 0.1% formic acid
metric_name: RP-LC retention time (s)

| molecule | unit_spec | RP-LC retention time |
| --- | --- | --- |
| CCCNc1cc(N2CCCC(CCC(=O)NCC3CCCO3)C2)ncn1 (stereo not given) | s | 608 |
| CC(=O)N1CCc2c(sc(NC(=O)C3(c4ccc(Cl)cc4)CCCC3)c2C#N)C1 | s | 946 |
| CN(C)C(=O)c1n[nH]c2c1CN(C(=O)c1cccc(Cl)c1)CC2 | s | 642 |
| CCc1nn2c(CNC(=O)c3ccccc3Cl)c(C)nc2s1 | s | 650 |
| CCN1CCN(CCCNC(=O)c2nc(-c3oc4ccccc4c3C)no2)CC1 | s | 621 |
| CCS(=O)(=O)c1nc2ccc(NS(=O)(=O)c3ccc4c(c3)oc(=O)n4C)cc2s1 | s | 805 |
| CCOC(=O)c1nn(-c2ccccc2)c(=O)cc1NCc1ccccn1 | s | 649 |
| Cc1noc2nc(C)n(CC(=O)NCc3cccc(F)c3)c(=O)c12 | s | 740 |
| COc1cc(C)c(C(C)C)cc1S(=O)(=O)NCc1ccco1 | s | 594 |
| CCNC(=O)NC1CCN(C(=O)C2CCC2)C1 (stereo not given) | s | 578 |
| Cc1cc2[nH]c(C(=O)Nc3cc(F)c(F)c(F)c3)c(CN3CCOCC3)c2s1 | s | 737 |
| CCOC(=O)c1cccc(NC(=O)C2CCCN(c3ccc(=O)n(-c4cccc(Cl)c4)n3)C2)c1 (stereo not given) | s | 994 |
| COc1ccc(OCCn2c(C(F)(F)F)nc3cc4c(cc32)OCCO4)cc1 | s | 985 |
| O=C(Nc1ccccc1)N1CCC2(CC1)CC(N1CCOCC1)CCO2 (stereo not given) | s | 583 |
| CCN1CCCC1CNC(=O)CCc1cc2cc(C)ccc2[nH]c1=O (stereo not given) | s | 588 |
| COC(=O)c1ncn2c1C(=O)N(c1ccc(C(C)C)cc1)C(C)(C(=O)NC1CCCC1)C2 (stereo not given) | s | 817 |
| Cn1nc(C(F)(F)F)cc1C(=O)N1CCCC1c1cccc(F)c1 (stereo not given) | s | 976 |
| Cc1nc(C)c(C(=O)N2CCC(Oc3ccc(-c4noc(-c5ccccc5)n4)cc3)C2)s1 (stereo not given) | s | 1080 |
| COc1ccc(-c2cc3c(=O)n(Cc4nc(-c5cccc(OC)c5OC)oc4C)ccn3n2)cc1 | s | 990 |
| CCC(CO)Nc1ncnc2c1cnn2-c1ccc(C)c(Cl)c1 (stereo not given) | s | 761 |
| COc1ccc(OC)c(NC(=O)c2c(C)oc3nc(C)nc(N4CCOCC4)c23)c1 | s | 818 |
| COc1ccc(N2C(=O)CCS2(=O)=O)cc1S(=O)(=O)N1CCN(c2ccccn2)CC1 | s | 603 |
| CSc1ccc(CNC(=O)C2CCCN(C(=O)Cc3cccc4ccccc34)C2)cc1 (stereo not given) | s | 951 |
| CSc1ccc(-c2nc3cnccn3c2Nc2ccc(C(=O)N3CCOCC3)cc2)cc1 | s | 708 |
| O=C(c1ccco1)N1CCCC1c1nc(-c2ccc(F)cc2)no1 (stereo not given) | s | 875 |
| CC(=O)Nc1ccc2c(c1)CN(C(=O)c1cccc(Cl)c1)C(C(=O)N1CCCC1)C2 (stereo not given) | s | 690 |
| O=C(Nc1ccc(F)c(F)c1)C1CCN(c2ccc(=O)n(-c3ccc(F)cc3)n2)CC1 | s | 822 |
| O=C(COc1ccc(F)cc1)Nc1nc(CN2CCc3ccccc3C2)cs1 | s | 608 |
| CCN(CC)C(=O)N[C@@H]1C[C@@H]2c3cccc4[nH]cc(c34)C[C@H]2N(C)C1 | s | 684 |
| CCCOCCOC(=O)C1=C(C)NC2=C(C(=O)CCC2)C1c1ccc(OC)cc1OC (stereo not given) | s | 792 |
